Experiment: Water sorption isotherms using Dynamic Vapor Sorption (DVS)
Assay type: physicochemical
Conditions: DVS sorption step, target RH 20%, 25° C.
measurementName: Change in Mass (%)
Answers are plain numbers, in %.

Use the examples below as a reference point.
O=C(O)c1ccc2c(c1)CCCC(c1ccc(Cl)cc1Cl)=C2c1ccc(O[C@H]2CCN(CCCF)C2)cc1 [anhydrate crystalline Form 1] ... 0.54
O=C(O)c1ccc2c(c1)CCCC(c1ccc(Cl)cc1Cl)=C2c1ccc(O[C@H]2CCN(CCCF)C2)cc1 [anhydrate crystalline Form 2] ... 0.02
O=C(O)c1ccc2c(c1)CCCC(c1ccc(Cl)cc1Cl)=C2c1ccc(O[C@H]2CCN(CCCF)C2)cc1 [anhydrate crystalline Form 4] ... 0.21

# context switch: different molecule, same Change in Mass
Exam item: Name the reported Change in Mass value associated with the molecule O=C(O)c1ccc2c(c1)CCCC(c1ccc(Cl)cc1Cl)=C2c1ccc(O[C@H]2CCN(CCCF)C2)cc1 [anhydrate crystalline Form 3]
Marked response: 1.13

----------
Assay: Water sorption isotherms using Dynamic Vapor Sorption (DVS)
Assay type: physicochemical
Conditions: DVS sorption step, target RH 90%, 25° C.
measurementName: Change in Mass (%)
Answers are plain numbers, in %.

Please review the entries below; each comes with its answer.
O=C(O)c1ccc2c(c1)CCCC(c1ccc(Cl)cc1Cl)=C2c1ccc(O[C@H]2CCN(CCCF)C2)cc1 [anhydrate crystalline Form 3] ... 2.84
O=C(O)c1ccc2c(c1)CCCC(c1ccc(Cl)cc1Cl)=C2c1ccc(O[C@H]2CCN(CCCF)C2)cc1 [anhydrate crystalline Form 4] ... 0.75
O=C(O)c1ccc2c(c1)CCCC(c1ccc(Cl)cc1Cl)=C2c1ccc(O[C@H]2CCN(CCCF)C2)cc1 [anhydrate crystalline Form 1] ... 3.76

Exam item: Change in Mass for O=C(O)c1ccc2c(c1)CCCC(c1ccc(Cl)cc1Cl)=C2c1ccc(O[C@H]2CCN(CCCF)C2)cc1 [anhydrate crystalline Form 2] ?
Marked response: 0.06

----------
So I've got a bunch of molecules here, and I need their Change in Mass values.
Test: Water sorption isotherms using Dynamic Vapor Sorption (DVS)
Type: physicochemical
Settings: DVS sorption step, target RH 40%, 25° C.
One number for each entry, in %.

O=C(O)c1ccc2c(c1)CCCC(c1ccc(Cl)cc1Cl)=C2c1ccc(O[C@H]2CCN(CCCF)C2)cc1 [anhydrate crystalline Form 2] ... 0.03
O=C(O)c1ccc2c(c1)CCCC(c1ccc(Cl)cc1Cl)=C2c1ccc(O[C@H]2CCN(CCCF)C2)cc1 [anhydrate crystalline Form 3] ... 1.46
O=C(O)c1ccc2c(c1)CCCC(c1ccc(Cl)cc1Cl)=C2c1ccc(O[C@H]2CCN(CCCF)C2)cc1 [anhydrate crystalline Form 4] ... 0.43

Now for a further molecule.
Exam item: Would you mind telling me what Change in Mass value was observed for O=C(O)c1ccc2c(c1)CCCC(c1ccc(Cl)cc1Cl)=C2c1ccc(O[C@H]2CCN(CCCF)C2)cc1 [anhydrate crystalline Form 1] ?
Marked response: 1.54
